Provenance of the data: the supplement of paper PMC10127200

tested on: HEPG2; assay: Euclidean distance of Cell Painting phenotypic profile (signed KS, 77 features) to DMSO centroid (dimensionless distance); 5 or 10 uM (library dependent); higher = stronger phenotypic change vs DMSO (phenoactivity); conditions: 48 h
Let's look at some compounds and their measured Euclidean distance.

entry.smiles	Euclidean distance
Oc1cc(O)cc(/C=C/c2ccc(O)c(O)c2)c1	2.04
Oc1c(Cl)cc(Cl)cc1Sc1cc(Cl)cc(Cl)c1O	1.02
CCCN1C[C@H](C)[C@@H](O)[C@](C)(O)[C@@H](CC)OC(=O)[C@H](C)[C@@H](O[C@H]2C[C@@](C)(OC)[C@@H](O)[C@H](C)O2)[C@H](C)[C@@H](O[C@@H]2O[C@H](C)C[C@H](N(C)C)[C@H]2O)[C@](C)(O)C[C@H]1C	1.08
O=[N+]([O-])c1cncn1CCN1CCOCC1	1.18
